test system: UACC-257 melanoma; experiment: NCI tumour cell line growth inhibition, 384-well format
For each entry below, report its GI50 value.

Need GI50 of "Nc1nc(OCc2cc(Br)cs2)c2[nH]cnc2n1" , thanks.
51.7 µM

// query: "O=C1Nc2c(C(F)(F)F)cccc2[C@@]1(c1ccc(O)cc1)c1ccc(OC(F)(F)F)cc1"
12 µM

// query: "Cc1ccc(-c2cc(C(F)(F)F)nn2-c2ccc(S(N)(=O)=O)cc2)cc1"
16.6 µM

// query: "C[C@H](Nc1ncnc2nc[nH]c12)c1cc2ccc(F)cc2nc1-c1ccccn1"
> 100 µM

* * *

For each entry below, report its TGI value.
test system: SK-MEL-5 melanoma; assay: NCI tumour cell line growth inhibition, 384-well format
Write the value in µM as a bare number.

What value of TGI on SK-MEL-5 melanoma does "O=C1Nc2c(C(F)(F)F)cccc2[C@@]1(c1ccc(O)cc1)c1ccc(OC(F)(F)F)cc1" have?
22.9

// query: "Cc1ccc(-c2cc(C(F)(F)F)nn2-c2ccc(S(N)(=O)=O)cc2)cc1"
26.7

* * *

system: TK-10 renal; assay: NCI tumour cell line growth inhibition, 384-well format
For each entry below, report its TGI value.

Need TGI of "Cc1ccc(-c2cc(C(F)(F)F)nn2-c2ccc(S(N)(=O)=O)cc2)cc1" , thanks.
30.4 µM

// query: "Nc1nc(OCc2cc(Br)cs2)c2[nH]cnc2n1"
> 100 µM

// query: "O=C1Nc2c(C(F)(F)F)cccc2[C@@]1(c1ccc(O)cc1)c1ccc(OC(F)(F)F)cc1"
< 0.01 µM

// query: "CC1(C)CCC2=C(O1)c1ccccc1C(=O)C2=O"
10.6 µM

* * *

test system: NCI-H226 lung; assay: NCI tumour cell line growth inhibition, 384-well format
For each entry below, report its GI50 value.

Need GI50 of "COC1CCN(C(=O)c2cc(Cc3n[nH]c(=O)c4ccccc34)ccc2F)CC1" , thanks.
> 100 µM

// query: "C[C@H](Nc1ncnc2nc[nH]c12)c1cc2ccc(F)cc2nc1-c1ccccn1"
35.7 µM

// query: "CC1(C)CCC2=C(O1)c1ccccc1C(=O)C2=O"
2 µM

// query: "Nc1nc(OCc2cc(Br)cs2)c2[nH]cnc2n1"
45.9 µM

* * *

tested on: MDA-MB-468 breast; experiment: NCI tumour cell line growth inhibition, 384-well format
TEST READOUT: TGI (µM)
Write the value in µM as a bare number.

Need TGI of "CC1(C)CCC2=C(O1)c1ccccc1C(=O)C2=O" , thanks.
2.45

// query: "COC1CCN(C(=O)c2cc(Cc3n[nH]c(=O)c4ccccc34)ccc2F)CC1"
33.3

// query: "Cc1ccc(-c2cc(C(F)(F)F)nn2-c2ccc(S(N)(=O)=O)cc2)cc1"
26.5

* * *

test system: HOP-92 NSCLC; assay: NCI tumour cell line growth inhibition, 384-well format
TEST READOUT: TGI (µM)
Write the value in µM as a bare number.

Need TGI of "Cc1ccc(-c2cc(C(F)(F)F)nn2-c2ccc(S(N)(=O)=O)cc2)cc1" , thanks.
29.4

// query: "CC1(C)CCC2=C(O1)c1ccccc1C(=O)C2=O"
3.33

* * *

test system: SK-MEL-5 melanoma; experiment: NCI tumour cell line growth inhibition, 384-well format
For each entry below, report its TGI value.

Need TGI of "C[C@H](Nc1ncnc2nc[nH]c12)c1cc2ccc(F)cc2nc1-c1ccccn1" , thanks.
> 100 µM

// query: "COC1CCN(C(=O)c2cc(Cc3n[nH]c(=O)c4ccccc34)ccc2F)CC1"
> 100 µM

// query: "Nc1nc(OCc2cc(Br)cs2)c2[nH]cnc2n1"
> 100 µM
